Biological target: T1, recombinant human Fibroblast Activation Protein (FAP) with N-terminus 6x histidine tag (human, UniProt Q12884 26-760)
T1 construct: Bought protein; also called rFAP; rhFAP
T1 sequence: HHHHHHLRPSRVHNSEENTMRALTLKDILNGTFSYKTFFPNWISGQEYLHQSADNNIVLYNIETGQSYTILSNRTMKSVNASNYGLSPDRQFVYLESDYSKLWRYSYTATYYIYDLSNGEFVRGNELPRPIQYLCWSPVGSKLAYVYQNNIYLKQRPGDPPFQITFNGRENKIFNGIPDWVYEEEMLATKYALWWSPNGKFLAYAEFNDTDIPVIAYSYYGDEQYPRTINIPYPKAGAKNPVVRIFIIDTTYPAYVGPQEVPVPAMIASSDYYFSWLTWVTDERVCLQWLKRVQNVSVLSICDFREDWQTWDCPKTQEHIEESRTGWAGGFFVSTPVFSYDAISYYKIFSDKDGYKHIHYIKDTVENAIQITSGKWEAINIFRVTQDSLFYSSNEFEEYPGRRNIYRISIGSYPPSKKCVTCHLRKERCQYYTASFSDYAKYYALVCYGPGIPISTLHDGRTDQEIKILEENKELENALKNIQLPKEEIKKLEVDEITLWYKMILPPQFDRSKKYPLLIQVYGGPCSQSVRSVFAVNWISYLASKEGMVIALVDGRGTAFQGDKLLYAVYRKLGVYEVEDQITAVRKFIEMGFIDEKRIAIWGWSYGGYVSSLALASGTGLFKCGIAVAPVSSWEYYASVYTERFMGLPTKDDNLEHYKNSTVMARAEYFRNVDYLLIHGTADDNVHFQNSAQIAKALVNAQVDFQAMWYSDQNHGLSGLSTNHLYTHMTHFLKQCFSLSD
Assay: direct ELISA: rFAP directly coated (FAP)
Please go through the items and note down their EC50.
Answers are plain numbers, in nM.

Record excerpt, results attached:
| binder | reported result |
| --- | --- |
| NI-206.18H2 (antibody, V domains shown, Recombinant complete human IgG1; Cy5-labelled in flow cytometry) VH: QVQLQESGPRLVKPSETLSLTCTVSGYSISNGYYWGWIRQPPGQGLEWIASVWHSGNTYHNPSLKSRVTILVDTLKNQFSLNLKSVTAADTALYYCARSYTRNDVGAFETWGQGTMVTVSS VL: SYELTQPPSVSVSPGQTARIACSGDELPKRYAYWYQQKSGQAPVLVMYEDTKRPSGIPERLSGSSSGTVTTLTISGAQVEDEADYYCYSTAPSGNHTFVFGTGTRVTVL | 3.54 |
| NI-206.12G4 (antibody, V domains shown, Recombinant complete human IgG1; Cy5-labelled in flow cytometry) VH: EVQLVESGGGLVKPGGSLRLSCAASGFTFSDYYMSWIRQAPGKGLEWISYISSGSSYTNYADSVKGRFTISRDNAKKSVYLEVNGLTVEDTAVYYCARVRYGDREMATIGGFDFWGQGTLVTVSS VL: SYELTQPPSVSVSPGQTARITCSGDALPKQYAYWYQQSPGQAPVLVIYKDSERPSGIPERFSGSSSGTTVTLTISGVQAEDEADYYCQSADSGGTSRIFGGGTKLTVL | 1.4 |
| NI-206.20A8 (antibody, V domains shown, Recombinant complete human IgG1) VH: EVQLVESGGGLVQPGGSLKLSCAGSGLDLSASAVHWVRQASGKGLEWIGRIRSKPNHYATTYLASVRGRFILSRDDSENTAYLQMNSLRTEDTAVYYCRIGILNSDHWGRGTLVTVSS VL: QSVLTQPPSASGTPGQTVIISCSGSSSNLGRKTLNWYQQLPGAAPKLLIFKNDQRASGVPDRFSASKSGTSASLTISGLQSDDEADYYCGTWDDSLDNWVFGGGTKVTVL | 2.9 |
| NI-206.17A6 (antibody, V domains shown, Recombinant complete human IgG1 with a kappa light chain) VH: QVQLQESGPGLVRSTETLSLTCLVSGDSINSHYWSWLRQSPGRGLEWIGYIYYTGPTNYNPSLKSRVSISLGTSKDQFSLKLSSVTAADTARYYCARNKVFWRGSDFYYYMDVWGKGTTVTVSS VL: EIVLTQSPGTLSLSLGERATLSCRASQSLANNYLAWYQQKPGQAPRLLMYDASTRATGIPDRFSGSGSGTDFTLTISRLEPEDFAVYYCQQFVTSHHMYIFGQGTKVEIK | 10.5 |
| NI-206.27E8 (antibody, V domains shown, Recombinant complete human IgG1; Cy5-labelled in flow cytometry) VH: EVQLVESGGGLVEPGGSLRLSCAASGFTFSDAWMNWVRQAPGKGLEWVGRIKTKSDGGTTDYAAPVRGRFSISRDDSKNTLFLEMNSLKTEDTAIYYCFITVIVVSSESPLDHWGQGTLVTVSS VL: SYELTQPPSVSVSPGQTARITCSGDELPKQYAYWYQQKPGQAPVLVIYKDRQRPSGIPERFSGSSSGTTVTLTISGVQAEDEADYYCQSAYSINTYVIFGGGTKLTVL | 0.33 |

Fill in EC50 for each of the 3 binders listed.
1. NI-206.6D3 (antibody, V domains shown, Recombinant complete human IgG1; Cy5-labelled in flow cytometry) VH: EVQLVESGGGLVKPGESLRLSCAASGFTFSKAWMNWVRQGPGKGLEWVGRVKSKTDGGTTDYAAPVKGRFTISRDDSKDTVFLQMNSLKTEDTAVYYCSIQFIVVGDRGRDDQYMDVWGKGTTVTVSS VL: SYVLTQPPSVSVSPGQTARITCSGDALPKQYAFWYQQKPGQAPVIMIYKDNQRPSGIPERFSGSSSGTTVTLTISGVQTEDEADYYCQSADSTNTHVVFGGGTKLTVL
2. NI-206.82C2 (antibody, V domains shown, Recombinantly expressed as complete human IgG1 with a lambda light chain; HRP-labelled in the homologue and sandwich ELISAs, Cy5-labelled in flow cytometry; also called HRP-labelled 82C2; Cy5 labelled 82C2) VH: QVQLQQSGPGLVKPSQTLSLTCAISGDSVSSNSVTWNWIRQSPSRGLEWLGRTYYRSKWYNDYAVSVKGRITINPDTSKNQFYLQLKSVTPEDAAVYYCARDSSILYGDYWGQGTLVTVSS VL: QAVLTQPSSLSASPGASASLTCTLPSGINVGTYRIFWFQQKPGSPPQYLLSYKSDSDNHQGSGVPSRFSGSKDASANAGILLISGLQSEDEADYYCMIWHSSAWVFGGGTKLTVL
3. NI-206.59B4 (antibody, V domains shown, Recombinant complete human IgG1; Cy5-labelled in flow cytometry) VH: QVQLVQSGAEVKKPGASVKVSCKTSGYTFTDYYIHWVRQAPGQGLEWMGWINPNRGGTNYAQKFQGRVTMTRDTSIATAYMELSRLRSDDTAVYYCATASLKIAAVGTFDCWGQGTLVTVSS VL: SYELTQPPSVSVSPGQTARITCSGDALSKQYAFWFQQKPGQAPILVIYQDTKRPSGIPGRFSGSSSGTTVTLTISGAQADDEADYYCQSADSSGTYVFGTGTKVTVL

Reply:
1. 86.5
2. 0.61
3. 0.096
